Biological target: T1, soluble human TNFR2 (human, UniProt P20333 23-257)
T1 construct: also called soluble TNFR2
T1 sequence (looked up): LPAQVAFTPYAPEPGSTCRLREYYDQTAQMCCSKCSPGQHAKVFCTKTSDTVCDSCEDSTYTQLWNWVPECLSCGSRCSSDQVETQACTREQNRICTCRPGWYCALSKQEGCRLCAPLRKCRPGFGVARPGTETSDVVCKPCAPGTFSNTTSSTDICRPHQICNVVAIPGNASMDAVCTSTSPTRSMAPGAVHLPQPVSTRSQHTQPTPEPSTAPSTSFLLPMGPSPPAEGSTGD
Assay: competition ELISA: plate-bound soluble human TNFR2, competitor biotinylated TNFα; IC50 relative to unlabelled TNFα = 1.00
valueKind: Relative IC50 (nM)
Only the number, expressed in nM, is required.

A selection of reference data follows.
chimeric SBT-004b (antibody, human IgG1, V domains shown, Same heavy chain as chSBT-004 (human IgG1 Fc domain); also called chSBT-004b) VH: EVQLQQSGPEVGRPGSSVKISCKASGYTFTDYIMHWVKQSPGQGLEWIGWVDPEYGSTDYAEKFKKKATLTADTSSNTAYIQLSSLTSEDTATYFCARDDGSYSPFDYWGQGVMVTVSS VL: NIVMTQSPKSMSMSVGERVTLTCKASENVVTYVSWYQQKPEQSPKLLIYGASNRYTGVPDRFTGSGSATDFTLTISSVQAEDLADYHCGQGYSYPYTFGGGTKLEIK	2.33
chimeric SBT-004 (antibody, V domains shown, VH fused to a human IgG1 Fc domain; also called chSBT-004) VH: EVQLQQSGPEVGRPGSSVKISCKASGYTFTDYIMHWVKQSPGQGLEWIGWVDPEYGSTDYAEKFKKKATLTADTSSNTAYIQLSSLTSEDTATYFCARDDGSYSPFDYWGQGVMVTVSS VL: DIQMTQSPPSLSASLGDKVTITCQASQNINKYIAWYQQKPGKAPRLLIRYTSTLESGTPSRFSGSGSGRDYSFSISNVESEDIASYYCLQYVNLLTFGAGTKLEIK	3.54
chimeric SBT-002 (antibody, V domains shown, also called chSBT-002) VH: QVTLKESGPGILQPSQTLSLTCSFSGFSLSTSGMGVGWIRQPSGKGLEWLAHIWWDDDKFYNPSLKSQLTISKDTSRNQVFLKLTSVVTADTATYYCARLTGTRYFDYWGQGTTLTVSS VL: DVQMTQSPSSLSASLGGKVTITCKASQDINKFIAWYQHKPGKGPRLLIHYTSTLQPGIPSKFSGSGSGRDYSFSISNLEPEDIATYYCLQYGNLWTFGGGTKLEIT	2.98

## Input Relative IC50 lookup needed for SBT-002 (antibody, V domains shown, Parental mouse antibody; also called mouse SBT-002) VH: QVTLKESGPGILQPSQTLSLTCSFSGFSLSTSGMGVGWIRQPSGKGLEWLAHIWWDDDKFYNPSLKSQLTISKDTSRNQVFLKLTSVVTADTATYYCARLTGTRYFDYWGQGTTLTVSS VL: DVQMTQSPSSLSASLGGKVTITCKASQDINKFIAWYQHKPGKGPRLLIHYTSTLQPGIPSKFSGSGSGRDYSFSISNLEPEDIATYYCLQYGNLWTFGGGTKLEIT , thanks.
## Output 2.17
